Field: glycan array binding signal (z-score). Provide a value for each of the binders that follow.
# target-system: Gal(b1-3)GlcNAc6S
# method-summary: glycan array binding signal (z-score within array); higher = stronger binding
# stated-conditions: glycan notation: IUPAC condensed, linker removed
About 410 targets per protein were measured; listed, in parts, are those with the strongest signals and a random draw of the rest.
No unit in the answer, please; the number alone is enough.

Incoming: Which value of glycan array binding signal (z-score) has been reported for Mincle (Bos taurus) (protein) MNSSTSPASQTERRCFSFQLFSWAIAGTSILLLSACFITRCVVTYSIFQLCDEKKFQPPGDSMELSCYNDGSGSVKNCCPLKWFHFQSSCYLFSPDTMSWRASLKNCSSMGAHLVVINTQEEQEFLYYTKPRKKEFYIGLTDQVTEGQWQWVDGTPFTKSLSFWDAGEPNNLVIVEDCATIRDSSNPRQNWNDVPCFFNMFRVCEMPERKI in the records?
Outgoing: -0.773

Incoming: Which value of glycan array binding signal (z-score) has been reported for Gal 3C (Homo sapiens), P17931 (protein) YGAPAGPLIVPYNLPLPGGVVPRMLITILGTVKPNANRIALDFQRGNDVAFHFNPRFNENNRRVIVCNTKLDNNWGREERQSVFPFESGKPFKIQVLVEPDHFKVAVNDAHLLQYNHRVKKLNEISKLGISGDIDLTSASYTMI in the records?
Outgoing: -0.277

Incoming: Which value of glycan array binding signal (z-score) has been reported for TIM1 (protein) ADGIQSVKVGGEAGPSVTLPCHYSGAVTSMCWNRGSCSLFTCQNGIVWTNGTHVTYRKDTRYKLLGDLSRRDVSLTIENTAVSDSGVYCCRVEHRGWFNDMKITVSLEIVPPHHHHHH in the records?
Outgoing: -0.212
